Tested on: Nucleic Acid
experiment-description: % complex formation of cellular protein -DNA complex at a concentration of 10 uM
Format: functional
condition-description: Homo sapiens
measured-property: Complex formation (%)
Respond numerically; units are % and should not be typed.

COc1cc([C@@H]2c3cc4c(cc3[C@@H](NCc3ccccc3[N+](=O)[O-])[C@H]3COC(=O)[C@H]23)OCO4)cc(OC)c1O: 144

Returns the measured Complex formation for the input compound. Input: `COc1cc(CN[C@@H]2c3cc4c(cc3[C@@H](c3cc(OC)c(O)c(OC)c3)[C@H]3C(=O)OC[C@@H]32)OCO4)cc(OC)c1`
144

Queued: `COc1cc([C@@H]2c3cc4c(cc3[C@@H](NCc3cccc(C#N)c3)[C@H]3COC(=O)[C@H]23)OCO4)cc(OC)c1O`
225
